experiment: Metabolic stability in mouse plasma; format: in vitro ADME; conditions: male, Swiss, mouse, plasma, pH 7.4, mouse plasma; read-out: Half life in the plasma (converted)
measurementType: half-life at 6 μg/μl

- CC(C)C[C@H](NC(=O)[C@H](CCCCN)NC(=O)[C@H](CCCNC(=N)N)NC(=O)[C@H](C)NC(=O)[C@H](CO)NC(=O)[C@H](CCCCN)NC(=O)[C@H](CCCNC(=N)N)NC(=O)[C@H](C)NC(=O)CNC(=O)[C@@H](NC(=O)[C@H](Cc1ccccc1)NC(=O)CNC(=O)CNC(=O)[C@@H](N)Cc1ccccc1)[C@@H](C)O)C(=O)N[C@@H](C)C(=O)N[C@@H](CC(N)=O)C(=O)N[C@@H](CCC(N)=O)C(=O)O [N/OFQ, reference compound]: ~1 h
